- experimental target: FGFR3 (UniProt P22607)
- Sequence (P22607 whole entry, looked up): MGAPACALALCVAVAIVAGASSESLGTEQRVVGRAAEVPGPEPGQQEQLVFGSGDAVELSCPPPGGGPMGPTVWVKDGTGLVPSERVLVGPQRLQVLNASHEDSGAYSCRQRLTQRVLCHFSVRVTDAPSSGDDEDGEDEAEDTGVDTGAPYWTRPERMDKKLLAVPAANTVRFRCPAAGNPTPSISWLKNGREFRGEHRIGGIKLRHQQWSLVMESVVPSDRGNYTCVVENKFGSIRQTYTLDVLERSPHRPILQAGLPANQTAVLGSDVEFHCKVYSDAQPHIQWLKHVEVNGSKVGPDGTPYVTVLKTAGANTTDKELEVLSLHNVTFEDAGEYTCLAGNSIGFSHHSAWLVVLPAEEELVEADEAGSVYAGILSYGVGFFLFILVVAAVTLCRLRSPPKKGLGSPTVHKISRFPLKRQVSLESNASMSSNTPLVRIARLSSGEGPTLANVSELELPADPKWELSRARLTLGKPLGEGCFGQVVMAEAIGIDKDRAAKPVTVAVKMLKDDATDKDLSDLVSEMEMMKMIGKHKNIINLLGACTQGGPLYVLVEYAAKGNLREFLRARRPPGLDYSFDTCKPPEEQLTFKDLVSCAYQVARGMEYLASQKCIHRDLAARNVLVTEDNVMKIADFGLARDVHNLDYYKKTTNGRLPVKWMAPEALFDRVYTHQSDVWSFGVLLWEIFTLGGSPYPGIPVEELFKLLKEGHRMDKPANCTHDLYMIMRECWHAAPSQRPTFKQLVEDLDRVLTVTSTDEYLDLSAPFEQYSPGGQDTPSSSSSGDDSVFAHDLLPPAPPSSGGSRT
- experiment: phosphorylation enrichment, bacterial display (enrichment ratio); higher = better substrate or ligand; peptides without Tyr show the background
result type: phosphorylation enrichment
Numbers only.

Known results for sequences:
QRALLYEDTLF [UNC13D_Y56_A59T_YF]; 0.853
IEKLTYIDKWF [CPS1_Y872]; 0.687
DEDEEYEFMNR [ERBB3_Y1197_YF]; 0.788
TNDMRYPMKSE [TGDS_Y302]; 0.523
MEKEKYVSFIS [JMJD1C_Y596_YF]; 0.55
TLMNAYSSCSH [KIF11_Y231_R234C]; 0.566

The sequence identified as QTEAQYRFIFM [PTPN11_Y511_YF] registered its phosphorylation enrichment at 1.02

---

- experimental target: FGFR1 (UniProt P11362)
- Sequence (P11362 whole entry, looked up): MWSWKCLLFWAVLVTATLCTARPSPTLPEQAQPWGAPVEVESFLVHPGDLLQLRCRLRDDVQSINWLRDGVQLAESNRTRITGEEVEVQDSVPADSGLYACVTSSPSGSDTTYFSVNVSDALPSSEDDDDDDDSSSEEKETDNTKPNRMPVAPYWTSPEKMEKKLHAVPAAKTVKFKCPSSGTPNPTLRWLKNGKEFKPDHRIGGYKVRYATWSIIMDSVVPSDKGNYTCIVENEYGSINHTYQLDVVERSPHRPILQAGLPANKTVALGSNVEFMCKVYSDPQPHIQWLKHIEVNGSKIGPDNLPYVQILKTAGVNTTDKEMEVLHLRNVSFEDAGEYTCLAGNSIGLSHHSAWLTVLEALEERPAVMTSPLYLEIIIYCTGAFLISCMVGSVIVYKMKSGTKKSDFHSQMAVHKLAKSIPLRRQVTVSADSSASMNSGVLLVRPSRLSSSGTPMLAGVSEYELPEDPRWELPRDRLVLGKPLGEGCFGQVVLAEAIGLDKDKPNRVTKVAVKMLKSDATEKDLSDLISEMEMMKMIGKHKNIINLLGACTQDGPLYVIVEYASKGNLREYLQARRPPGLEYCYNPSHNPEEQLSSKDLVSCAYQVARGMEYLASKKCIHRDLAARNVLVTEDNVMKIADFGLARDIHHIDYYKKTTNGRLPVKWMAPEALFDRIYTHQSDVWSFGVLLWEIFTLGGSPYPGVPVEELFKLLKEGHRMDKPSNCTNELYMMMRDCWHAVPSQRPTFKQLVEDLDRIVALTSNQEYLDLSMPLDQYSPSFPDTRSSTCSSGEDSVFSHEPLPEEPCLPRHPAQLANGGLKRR
- experiment: phosphorylation enrichment, bacterial display (enrichment ratio); higher = better substrate or ligand; peptides without Tyr show the background
result type: phosphorylation enrichment
Give bare numbers.

Known results for sequences:
QTEAQYRFIFM [PTPN11_Y511_YF]; 0.893
RHFTGCRIELQ [INSR_Y818_Y818C]; 0.488
RLLVVYPWTQK [HBG1_Y36_R41K]; 0.473

Parameter requested: phosphorylation enrichment. Apply to each item below.
1. KLADIYQAELR [GFAP_Y116_V115I]
2. NRNVRYLTLDI [AKR1C2_Y305]
3. AIKSFYAALID [RYR1_Y2426_M2423K]
4. SQSKGYRPKLY [SIPA1L3_Y1376_G1371S]
5. AGIENYKSRFG [NKD2_Y256_T257K]
6. DTQNSYRCATS [TSC1_Y304_G305R]
7. MVSLFYGTAIF [OR10C1_Y251_L255I]

1: 0.419; 2: 0.507; 3: 0.553; 4: 0.424; 5: 0.357; 6: 0.565; 7: 0.477

Parameter requested: phosphorylation enrichment. Apply to each item below.
1. KMKGDYFCFLA [YWHAG_Y130_R132C_YF]
2. GVTLLCFGRFN [ADGRD1_Y85_Y85C_YF]
3. TALFIYIRPKA [OR10C1_Y258]

11.9
0.524
0.556

Parameter requested: phosphorylation enrichment. Apply to each item below.
1. VFFGSYSCPFG [NKAP_Y104_R106C_YF]
2. IVAREYFSKAD [CAMK2B_Y107_E110K_YF]
3. SSVKPYRVYCD [FGB_Y266]
4. NPIGLYSAEIL [LDB3_Y202_T206I]
5. VVQGIYGYHHY [UFSP2_Y285]

1: 0.476; 2: 0.434; 3: 0.463; 4: 0.419; 5: 0.662

Parameter requested: phosphorylation enrichment. Apply to each item below.
1. CTTIHFNFMCN [TP53_Y234_Y234F_YF]
2. PGVNYYFRVSA
3. EQKKYYNAMKK [SCN5A_Y1495]

[0.614, 0.787, 0.342]

Parameter requested: phosphorylation enrichment. Apply to each item below.
1. CPPKVYELMIA [ABL2_Y515_R519I]
2. TAGFIYEKWEI [TEC_Y360_S359I]
3. EFAAGYNVKFD [GPX4_Y123]
4. ALRASYTPSPV [ESS2_Y418_A423V]
5. SYCYRYCCAAR [SUMF1_Y344_R345C]

[1.34, 0.474, 0.697, 0.32, 0.47]

Parameter requested: phosphorylation enrichment. Apply to each item below.
1. TLLERYGMTKI [ACSF3_Y355_E359K]
2. NKEAICSGFIR [SMCHD1_Y283_Y283C_YF]
3. HILFRYPKEFQ [IDS_Y234_P231L]

1. 0.513
2. 0.496
3. 0.866

Parameter requested: phosphorylation enrichment. Apply to each item below.
1. IGNGYYFHVFS [MYBPC3_Y1136_R1138H]
2. SNFRAYATEPQ [TNNI3_Y29_H34Q_YF]
3. AVLQLYIFVAT [CFTR_Y1014_P1013L]
4. FSEVRYVKEPF [HIPK4_Y170_YF]
5. EQLLDYTRTVQ [INPP5E_Y439_R435Q]

1.61
0.355
0.462
0.586
0.515

Parameter requested: phosphorylation enrichment. Apply to each item below.
1. GDAMLYYPSVS [GPR143_Y177_A173D]
2. TKVTFYKQPMF [GBA_Y451_D448V]
3. ITVCDYTNPCP [MYD88_Y276_T281P]
4. PLDGEYFSLQI [TP53_Y327_T329S]
5. FSQQTYYRVSN [ABCD1_Y180]
6. SIKDKYVTALY [KCNH2_Y611]
7. ALAAPYVLFPG [CEFIP_Y1332_YF]
8. LTTPTYGDLNH [TUBB_Y222]

1. 5.91
2. 0.461
3. 0.443
4. 6.64
5. 6.2
6. 0.387
7. 3.79
8. 1.03

---

- Test system: c-Src
- experiment: phosphorylation enrichment, bacterial display (enrichment ratio); higher = better substrate or ligand; peptides without Tyr show the background
result type: phosphorylation enrichment

LDMSQYFRLFN [CPT2_Y217]; 0.601
IMVFVYSRVFQ [ADRB2_Y219]; 0.486
EKRDAYVSCLN [GSR_Y150_R153C]; 0.514
SRGSSYNSIPK [FLNC_Y2625_S2626N]; 0.486

Moving on to another sequence below.
The sequence identified as LSVISYDLGMF [GBA3_Y174_M172I] registered its phosphorylation enrichment at 0.586

---

- experimental target: Fes (UniProt P07332)
- Sequence (P07332 whole entry, looked up): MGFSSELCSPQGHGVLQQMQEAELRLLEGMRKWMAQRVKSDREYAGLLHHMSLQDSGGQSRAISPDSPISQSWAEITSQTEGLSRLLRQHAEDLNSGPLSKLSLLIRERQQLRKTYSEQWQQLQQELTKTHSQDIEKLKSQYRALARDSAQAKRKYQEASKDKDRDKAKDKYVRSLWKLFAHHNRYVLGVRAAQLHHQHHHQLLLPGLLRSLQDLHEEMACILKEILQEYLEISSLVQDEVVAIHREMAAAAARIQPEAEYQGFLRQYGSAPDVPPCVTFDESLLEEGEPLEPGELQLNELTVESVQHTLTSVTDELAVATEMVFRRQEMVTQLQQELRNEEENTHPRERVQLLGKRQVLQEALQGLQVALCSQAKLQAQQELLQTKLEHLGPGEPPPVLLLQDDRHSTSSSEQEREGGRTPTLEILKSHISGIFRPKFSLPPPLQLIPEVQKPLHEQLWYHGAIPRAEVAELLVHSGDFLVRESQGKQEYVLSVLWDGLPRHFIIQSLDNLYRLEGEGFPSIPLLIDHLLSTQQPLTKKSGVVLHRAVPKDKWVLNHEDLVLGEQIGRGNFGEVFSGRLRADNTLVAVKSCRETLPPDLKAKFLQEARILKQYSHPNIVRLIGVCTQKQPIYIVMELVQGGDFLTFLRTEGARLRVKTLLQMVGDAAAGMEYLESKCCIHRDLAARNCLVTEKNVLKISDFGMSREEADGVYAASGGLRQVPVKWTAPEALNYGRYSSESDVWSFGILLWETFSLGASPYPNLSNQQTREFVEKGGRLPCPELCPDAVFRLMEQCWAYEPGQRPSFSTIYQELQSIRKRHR
- experiment: phosphorylation enrichment, bacterial display (enrichment ratio); higher = better substrate or ligand; peptides without Tyr show the background
result type: phosphorylation enrichment
Answers are plain numbers.

IMFTSYFLTIL [TAS2R16_Y239_V235M]; 1.52
IVLEKYKLLPE [DHFR_Y157_D153V]; 1.07
PFVFFYSFLLK [PTEN_Y178_R173P_YF]; 2.12
ARSHIYTLASC [MEFV_Y741_F743L]; 1.13
SEDSEYFRAFE [CASQ2_Y178_K180R_YF]; 1.48

Parameter requested: phosphorylation enrichment. Apply to each item below.
1. TKVVHYWKWIK [KLK2_Y249_R250W]
2. PVLSLYASGRT [ACTA1_Y145_A140P]
3. LPVHFYSHVEH [PYGM_Y204_G205S]

1: 0.975; 2: 1.19; 3: 1.63

Parameter requested: phosphorylation enrichment. Apply to each item below.
1. QGGRCYMMIVD [GAA_Y438_R437C]
2. GFITSYREEEQ
3. EQKKNYNAMKK [SCN5A_Y1495_Y1494N]
4. SWSTSYSGFRF [NKAPL_Y91_YF]

1. 2.69
2. 1.14
3. 1.07
4. 1.38

Parameter requested: phosphorylation enrichment. Apply to each item below.
1. VEKEKYVSYIS [JMJD1C_Y596_M591V]
2. EIIPFYGMSTY [FNDC3B_Y175]
3. TNFRLYLRSLE [MTM1_Y71_YF]
4. RKRQFYLFKGK [RSPO4_Y112_C107R_YF]

[0.826, 0.875, 1.49, 0.949]

---

- experimental target: c-Src SH2;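 also: peptide library displayed on the E. coli surface as eCPX fusions, selected cells deep-sequenced, score is each peptide's frequency after selection divided by its frequency in the input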
- experiment: SH2 binding enrichment of the phosphorylated peptide, bacterial display (enrichment ratio); higher = better substrate or ligand; peptides without Tyr show the background
result type: SH2 binding enrichment
One number for each entry.

Known results for sequences:
EPSLDYMVTKI [CPS1_Y768]; 0.379
EDKSIYRRGAC [PRKCI_Y125_R130C]; 0.514
PGPPGYCDSSH [COL12A1_Y3043_Q3048H]; 0.498
KANEFYPVVLI [ADAMTS18_Y765_YF]; 0.388
CTTIHYNYLCN [TP53_Y234_M237L]; 4.93
PKEEPYKMQEK [SLC5A3_Y565_Q566K]; 0.541
AELKLYSGAQT [ZAP70_Y178_R175L]; 0.518
GADDSYYTARS [ZAP70_Y492]; 0.556

Parameter requested: SH2 binding enrichment. Apply to each item below.
1. KNEVFYQCPDQ [FBXO3_Y223]
2. GEDEPYAEPYA [APBA1_Y183_S184A]
3. LDTIQYSKHPP [SQSTM1_Y433]
4. NKEAICSGFIR [SMCHD1_Y283_Y283C_YF]

1: 0.526; 2: 0.821; 3: 0.408; 4: 0.5

Parameter requested: SH2 binding enrichment. Apply to each item below.
1. AIKSFYAALID [RYR1_Y2426_M2423K]
2. GSQERDFELVE [TSC2_Y407_Y407D]

1: 1.67; 2: 0.632
